The measured values listed here are drawn from patent US5021439A.

# Tested on: neurons of rat hippocampus
# assayRemarks: Excitatory action on neurons of rat hippocampus in vitro (CA1 spike recording in slices)
# Format: cell-based
# appliedConditions: Rattus norvegicus, Neuron, rat hippocampal slices, CA1 pyramidal cell layer, Krebs-Ringer solution 33° C.; read-out: Minimum effective concentration to induce firing of hippocampus nervous cell
Each entry below carries its recorded minimal effective concentration.

Use these answered entries as a reference point.
N[C@@H](C(=O)O)c1c[nH]oc1=O [Compound 149]	≥ 30 µM
CCc1[nH]oc(=O)c1C[C@H](N)C(=O)O [Compound 81]	≥ 1 µM
N[C@H](Cc1c[nH]oc1=O)C(=O)O [Compound 72]	≥ 300 µM
N[C@@H](Cc1c[nH]oc1=O)C(=O)O [Compound 1, TAN-950A]	≥ 300 µM

Determine from records and report minimal effective concentration for N[C@@H](Cc1c(C2CCCC2)[nH]oc1=O)C(=O)O [Compound 158] ≥ 0.3 µM
